pIC50: −log10 of the molar value.
// note: pIC50 values for Receptor-type tyrosine-protein kinase FLT3 (Homo sapiens, UniProt P36888) were reported in different studies
attribute-measured: pIC50

# compound, attribute-measured, measurement
rows = [
    ("COc1cc(OC)cc(C(=O)c2c[nH]c3ncc(-c4cccc(NS(C)(=O)=O)c4)cc23)c1", "pIC50", "≥ 5.00"),
    ("CCCS(=O)(=O)Nc1ccc(F)c(C(OC)c2c[nH]c3ncc(OC)cc23)c1F (stereo not drawn)", "pIC50", "≥ 5.00"),
    ("CC(C)(C)c1cc(NC(=O)Nc2ccc(-c3cn4c(n3)sc3nc(OCC5(N)CC5)ccc34)cc2)no1", "pIC50", 7.42),
    ("CNS(=O)(=O)c1ccc(-c2cc([C@H]3CC[C@H](O)CC3)n3nc(N[C@@H](C)COC)ncc23)cn1", "pIC50", "6.00 to 7.00"),
    ("COc1ccc(C(=O)NC(=O)Nc2ccc3c(c2)NC(=O)/C3=C\\c2[nH]c(C)c(C(=O)O)c2C)c(F)c1", "pIC50", 6.95),
    ("CCCC(C)Nc1ncc2c(NC3CCNCC3)ncc([C@H]3CC[C@H](O)CC3)c2n1 (stereo partly drawn)", "pIC50", "6.00 to 7.00"),
    ("Cc1cnc(Nc2ccc(N3CCN(C)CC3)c(F)c2)nc1Nc1cccc(NS(=O)(=O)C(C)(C)C)c1", "pIC50", 8.96),
    ("CC[C@H](C)Nc1ncc2c(-c3cncc(S(C)(=O)=O)c3)cc([C@H]3CC[C@@H](O)CC3)n2n1", "pIC50", "5.00 to 6.00"),
    ("CN(CCN1CCOCC1)c1ccc2c(n1)sc1nc(-c3ccc(NC(=O)Nc4cc(C(C)(C)C)on4)cc3)cn12", "pIC50", 7.37),
    ("CCc1nc2c(N)ncc(-c3ccc(-c4ccc(C5CCN(C)CC5)cc4)c(OC)c3)c2nc1N[C@@H]1CC[C@H](O)C1", "pIC50", "≥ 8.00"),
    ("CCCCNc1ncc2c(OC3CCN(C)CC3)ncc([C@H]3CC[C@H](O)CC3)c2n1", "pIC50", "≥ 7.00"),
    ("COC[C@H](C)Nc1ncc2c(-c3cnn(CC(=O)NC(C)C)c3)cc([C@H]3CC[C@H](O)CC3)n2n1", "pIC50", "5.00 to 6.00"),
    ("COc1ncnc2[nH]cc(Cc3ccc(Nc4ccc(Cl)nc4)nc3F)c12", "pIC50", "> 6.00"),
    ("COc1cc(C2=C(c3c[nH]c4cnccc34)C(=O)NC2=O)cc(OC)c1OC", "pIC50", 5.72),
    ("CC[C@H](C)Nc1ncc2c(OC3CCN(c4ncccn4)CC3)ncc([C@H]3CC[C@H](O)CC3)c2n1", "pIC50", "5.00 to 6.00"),
    ("CC(=O)N1CCO[C@H](COc2nc(-c3ccc4c(c3)CCOC4(C)C)cc3nccnc23)C1", "pIC50", 6.05),
    ("O=C1Nc2cc(NC(=O)c3c[nH]cc(-c4ccccc4)c3=O)ccc2/C1=C/c1ccc[nH]1", "pIC50", 7.56),
    ("CNC(=O)N1CCN(Cc2ccnc(Nc3cc4ccccc4cn3)c2)CC1", "pIC50", "> 7.00"),
    ("CC[C@H](C)NC1=NC2C([C@H]3CC[C@H](O)CC3)=CN(C(C)C)C(=O)C2C=N1 (stereo partly drawn)", "pIC50", "5.00 to 6.00"),
    ("CCc1nc2c(N)ncc(-c3ccc(N4CCC(N5CCN(C)CC5)CC4)c(C#N)c3)c2nc1NC1CCOCC1", "pIC50", "≥ 8.00"),
    ("CN1CCC(COc2ccc3c(n2)sc2nc(-c4ccc(NC(=O)Nc5cc(C(C)(C)C)on5)cc4)cn23)CC1", "pIC50", 7.89),
    ("CCOc1ccc(Nc2ncc(Cc3c[nH]c4ncc(C)cc34)cn2)cn1", "pIC50", "> 8.00"),
    ("CCc1nc2c(N)ncc(-c3cnn(C4CCN(C5CCN(CC)CC5)CC4)c3)c2nc1N[C@H]1CCOC1", "pIC50", "≥ 8.00"),
    ("NC(=O)c1ccc2cc1OCCNCCNc1ccn3ncc-2c3n1", "pIC50", "> 7.00"),
    ("COC[C@H](C)Nc1ncc2c(OC3CCOCC3)ncc(-c3cnn([C@H]4CCN(C)C4)c3)c2n1", "pIC50", "5.00 to 6.00"),
    ("CN1CCN(c2ccc3nc(-c4c(NC5CCN(C=O)CC5)c5ccsc5[nH]c4=O)[nH]c3c2)CC1", "pIC50", "≥ 7.30"),
    ("C[C@H](CC(F)(F)F)Nc1ncc2c(O[C@H]3C[C@@H](O)C3)ncc([C@H]3CC[C@H](O)CC3)c2n1", "pIC50", "5.00 to 6.00"),
    ("CCc1nc2c(N)ncc(-c3ccc(N4CCC(N5CCN(C)CC5)CC4)c(OCCOC)c3)c2nc1NC1CCOCC1", "pIC50", "≥ 8.00"),
    ("C[C@@H](CC(F)(F)F)Nc1ncc2c(-c3ccc(CN4CCOCC4)cc3)cc([C@H]3CC[C@H](O)CC3)n2n1", "pIC50", "≥ 7.00"),
    ("CC(Nc1ncc2c(-c3cnn(C4COC4)c3)cc(C3CCC(O)CC3)n2n1)c1cccnc1 (racemic)", "pIC50", "5.00 to 6.00"),
]
